assayInfo: Microsomal stability in mouse liver microsomes assessed as parent compound remaining after 30 mins in presence of NADPH by LC -MS/MS analysis
Format: ADME, Microsome
runConditions: read-out: Stability
reportedEndpoint: remaining at 0.5 h (%)

Some molecules with recorded remaining at 0.5 h:
[[record]]
molecule = "CCCCC(NC(=O)c1[nH]c2c(c1C)C(=O)CC(C)(C)C2)C(=O)Nc1cccc(C#N)c1 (racemic)"
scaleunit = "%"
experimentalvalue = 6.4

[[record]]
molecule = "CC(C)c1c(C(=O)N[C@@H](CCC2CC2)C(=O)Nc2ccc(C#N)cc2)[nH]c2c1C(=O)CC(C)(C)C2"
scaleunit = "%"
experimentalvalue = 70.8


P: CCCCNC(=O)C(CCCC)NC(=O)c1[nH]c2c(c1C)C(=O)CC(C)(C)C2 (racemic)
Q: CCCCC(NC(=O)c1[nH]c2c(c1C)C(=O)CC(C)(C)C2)C(=O)Nc1ccccn1 (racemic)
R: CCCCC(NC(=O)c1[nH]c2c(c1C)C(=O)CC(C)(C)C2)C(=O)Nc1ccc(C#N)cc1 (racemic)
stdin: Arrange the 3 molecules from largest to smallest remaining at 0.5 h. When ranking, write the labels in the order the request describes.
stdout: R, Q, P
(R: 63.9%, Q: 25.1%, P: 0.8%)

a: CCCCC(NC(=O)c1[nH]c2c(c1C)C(=O)CC(C)(C)C2)C(=O)Nc1ccc(F)cc1 (racemic)
b: CCCCC(NC(=O)c1[nH]c2c(c1C)C(=O)CC(C)(C)C2)C(=O)Nc1ccccc1 (racemic)
stdin: Could you determine which record has the numerically smaller remaining at 0.5 h? Candidates: a and b Response format: the label of the selected entry.
stdout: b

src = ChEMBL document CHEMBL5247652
